- experimental-target: Porcine ventricle myofibrils (ventricular myosin ATPase) (Sus scrofa, UniProt P79293)
- Construct: Myofibrils from porcine cardiac muscle was isolated from the left ventricle of Yucatan minipigs; tissue Exemplar Genetics; host or cells: left ventricle of Yucatan minipigs, myofibrils prepared in house
- Sequence (P79293 whole entry): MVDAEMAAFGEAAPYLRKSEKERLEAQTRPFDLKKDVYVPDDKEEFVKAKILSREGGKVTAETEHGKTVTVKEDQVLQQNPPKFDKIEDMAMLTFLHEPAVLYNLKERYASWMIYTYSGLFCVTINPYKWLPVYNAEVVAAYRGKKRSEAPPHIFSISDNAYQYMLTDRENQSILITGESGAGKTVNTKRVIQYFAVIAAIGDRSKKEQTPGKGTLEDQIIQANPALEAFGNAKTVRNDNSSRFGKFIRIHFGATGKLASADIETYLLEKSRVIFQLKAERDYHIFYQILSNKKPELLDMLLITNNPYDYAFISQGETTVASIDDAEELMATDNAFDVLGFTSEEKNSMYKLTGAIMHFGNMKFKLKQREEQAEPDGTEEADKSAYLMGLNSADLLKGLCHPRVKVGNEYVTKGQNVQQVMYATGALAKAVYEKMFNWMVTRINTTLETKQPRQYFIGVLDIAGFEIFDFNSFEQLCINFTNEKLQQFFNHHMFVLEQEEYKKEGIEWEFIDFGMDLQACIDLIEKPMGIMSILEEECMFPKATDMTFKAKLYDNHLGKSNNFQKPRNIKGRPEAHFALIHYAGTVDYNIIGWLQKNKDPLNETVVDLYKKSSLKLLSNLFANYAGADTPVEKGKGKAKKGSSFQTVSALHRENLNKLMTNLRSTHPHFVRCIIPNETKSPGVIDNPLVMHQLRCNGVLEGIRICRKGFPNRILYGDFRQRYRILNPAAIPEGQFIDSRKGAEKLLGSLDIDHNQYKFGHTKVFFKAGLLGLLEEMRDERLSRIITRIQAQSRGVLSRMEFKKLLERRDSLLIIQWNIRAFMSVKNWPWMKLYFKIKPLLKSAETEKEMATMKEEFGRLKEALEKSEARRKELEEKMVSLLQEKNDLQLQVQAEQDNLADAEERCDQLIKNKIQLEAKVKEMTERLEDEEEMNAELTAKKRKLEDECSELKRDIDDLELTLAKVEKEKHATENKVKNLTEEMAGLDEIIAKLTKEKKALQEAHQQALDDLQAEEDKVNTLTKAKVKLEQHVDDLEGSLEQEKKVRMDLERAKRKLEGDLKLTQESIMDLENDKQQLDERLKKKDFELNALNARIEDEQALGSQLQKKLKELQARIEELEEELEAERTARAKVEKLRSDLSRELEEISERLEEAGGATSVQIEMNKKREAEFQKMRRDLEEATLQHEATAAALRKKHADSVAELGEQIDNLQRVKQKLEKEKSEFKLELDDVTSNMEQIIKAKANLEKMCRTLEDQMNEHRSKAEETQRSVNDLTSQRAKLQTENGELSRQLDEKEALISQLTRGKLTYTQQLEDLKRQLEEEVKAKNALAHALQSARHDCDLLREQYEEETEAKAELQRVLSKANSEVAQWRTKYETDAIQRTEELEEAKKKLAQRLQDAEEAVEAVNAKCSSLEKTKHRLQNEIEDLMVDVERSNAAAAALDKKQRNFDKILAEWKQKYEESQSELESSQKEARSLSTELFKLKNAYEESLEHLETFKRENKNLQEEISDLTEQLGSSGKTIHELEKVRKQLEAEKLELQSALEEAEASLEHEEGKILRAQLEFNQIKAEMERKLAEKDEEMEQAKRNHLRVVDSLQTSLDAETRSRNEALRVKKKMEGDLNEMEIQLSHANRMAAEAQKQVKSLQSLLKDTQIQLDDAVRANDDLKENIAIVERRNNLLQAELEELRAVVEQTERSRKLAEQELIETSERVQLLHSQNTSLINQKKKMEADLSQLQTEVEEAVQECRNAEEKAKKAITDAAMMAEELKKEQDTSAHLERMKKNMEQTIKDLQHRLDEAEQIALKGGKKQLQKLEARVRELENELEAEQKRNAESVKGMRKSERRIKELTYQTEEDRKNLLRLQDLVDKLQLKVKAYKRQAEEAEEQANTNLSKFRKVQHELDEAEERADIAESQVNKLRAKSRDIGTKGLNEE
- method-notes: Myofibril ATPase assay, porcine ventricle myofibrils
- Type: biochemical, porcine (Yucatan minipigs)
- assay-conditions: Y75 value (no ‡ mark); porcine ventricle myofibrils
measurement-label: Ventricular EC25 (nM)

[a] Cc1c(CC(=O)N[C@H](C)c2ccc(C#N)cc2F)c(=O)[nH]c2ccc(F)c(C#N)c12 [compound 67]
[b] Cc1c(C(F)(F)C(=O)N[C@@H](C)c2ncc(C#N)cc2F)c(=O)[nH]c2cccc(F)c12 (single isomer, unassigned) [compound 2533]
[c] Cc1c(C(F)(F)C(=O)N[C@@H](C)c2ncc(C#N)cn2)c(=O)[nH]c2ccc(F)cc12 (single isomer, unassigned) [compound 2595]
Put the items above in order of decreasing Ventricular EC25. I would appreciate it if you listed the labels in the requested order.
c, a, b
(c: 450 nM, a: 260 nM, b: 130 nM)

[I] Cc1c(CC(=O)N[C@@H](C)c2cnc(C#N)cn2)c(=O)[nH]c2ccc(F)cc12 [compound 1109]
[II] Cc1c(C(F)(F)C(=O)N[C@H](C)c2ncc(C#N)cc2F)c(=O)[nH]c2ccc(F)c(C#N)c12 (single isomer, unassigned) [compound 4835]
[III] Cc1c(CC(=O)N[C@@H](C)c2ccc(F)cc2F)c(=O)[nH]c2ccc(F)c(F)c12 [compound 116]
Thanks in advance: please rank these 3 entries by Ventricular EC25, highest to lowest. # answer = labels listed in requested order
II, I, III

[1] Cc1c([C@H](C)C(=O)N[C@@H](C)c2ncc(C#N)cc2F)c(=O)[nH]c2ccc(F)c(F)c12 (single isomer, unassigned) [compound 2603]
[2] C[C@H](NC(=O)[C@@H](C)c1cc2c(F)c(F)ccc2[nH]c1=O)c1ccc(F)cc1F (single isomer, unassigned) [compound 110]
# compare Ventricular EC25 for 1 vs 2 ; return the one with the smaller value Return value: the label identifying the chosen record.
1
(1: 210 nM, 2: 42600 nM)

[I] Cc1c(CC(=O)N[C@@H](C)c2ncc(C#N)cn2)c(=O)[nH]c2ccc(F)c(C#N)c12 (single isomer, unassigned) [compound 2016]
[II] Cc1c(CC(=O)N[C@H](C)c2ccc(C#N)cn2)c(=O)[nH]c2ccc(F)c(C3CC3)c12 [compound 23]
[III] Cc1c(CC(=O)N[C@H](C)c2ccc(C#N)cn2)c(=O)[nH]c2ccc(F)c(F)c12 [compound 45]
[IV] Cc1c(F)ccc2[nH]c(=O)c(CC(=O)N[C@@H](C)c3ncc(F)cc3F)c(C#N)c12 [compound 1148]
Thanks in advance: please rank these 4 entries by Ventricular EC25, highest to lowest. Provide the ranking by listing each label in its place in the requested order.
II, III, I, IV
(II: 1190 nM, III: 420 nM, I: 290 nM, IV: 90 nM)

[P] Cc1cc(F)cnc1[C@@H](C)NC(=O)C1(c2cc3c(F)c(F)ccc3[nH]c2=O)CC1 (single isomer, unassigned) [compound 4805]
[Q] C[C@@H](NC(=O)Cc1c(C2CC2)c2cc(C#N)ccc2[nH]c1=O)c1ncc(C#N)cc1F [compound 1151]
// which entry reports the smaller Ventricular EC25, P or Q ? Lab log: write the label of the selected item as the result.
Q
(Q: 21670 nM, P: 100000 nM)

[I] Cc1c(CC(=O)N[C@@H](CO)c2ccc(F)cc2F)c(=O)[nH]c2cccc(C#N)c12 (single isomer, unassigned) [compound 90]
[II] Cc1c(CC(=O)N[C@H](C)c2ccc(C#N)cn2)c(=O)[nH]c2ccc(F)cc12 [compound 1127]
Consider I and II . Which of these has its Ventricular EC25 at a higher number? Return value: the label identifying the chosen record.
I

[1] Cc1c(CC(=O)N[C@H](C)c2ncc(C#N)cn2)c(=O)[nH]c2cccc(F)c12 (single isomer, unassigned) [compound 2041]
[2] COc1ccc2[nH]c(=O)c(C(C)C(=O)N[C@@H](C)c3ccc(F)cc3F)cc2c1Cl (stereo partly drawn) [compound 87]
[3] C[C@H](NC(=O)Cc1cc2c(C(F)(F)F)c(F)ccc2[nH]c1=O)c1ncc(C#N)cn1 (single isomer, unassigned) [compound 2010]
[4] Cc1c(CC(=O)N[C@@H](C)c2ncc(C#N)cc2F)c(=O)[nH]c2ccc(F)c(C(F)(F)F)c12 [compound 22]
Sort by Ventricular EC25, descending. Please list the labels in the order you were asked to rank them.
2, 3, 1, 4
(2: 100000 nM, 3: 3450 nM, 1: 1500 nM, 4: 20 nM)

[I] Cc1c(C(F)(F)C(=O)N[C@@H](C)c2ncc(C#N)cn2)c(=O)[nH]c2cccc(C#N)c12 (single isomer, unassigned) [compound 4839]
[II] C[C@@H](NC(=O)C1(c2cc3c(F)c(F)ccc3[nH]c2=O)CC1)c1cnc(C#N)cn1 (single isomer, unassigned) [compound 4829]
Between the entries labelled I and II , which has a larger Ventricular EC25 value on record? Respond using the label that marks the chosen record.
II
